target: human GLP-1 receptor (human, UniProt P43220); assay: cell-based or functional assay
Endpoint: GLP-1 Receptor Activation (relative to GLP-1(7-37)OH) (relative potency)
Give bare numbers, in relative potency.

Illustrative cases are given below, each with its answer.
[
  {
    "Binder": "HGEGTFTSDVSSYLEGQAAKEFIEWLVKGRG [Gly^8-Glu^30-GLP-1(7-37)OH]",
    "Quantitative Readout": 0.29
  },
  {
    "Binder": "HVEGTFTSDVSSYLEGQAAKEFIAWLVKGHG [Val^8-His^36-GLP-1(7-37)OH]",
    "Quantitative Readout": 0.22
  }
]

Batch of 6 binders: report GLP-1 Receptor Activation (relative to GLP-1(7-37)OH) for each.
1. HVEGTFTSDVSSYLEGQAAHEFIAWLVKGRG [Val^8-His^26-GLP-1(7-37)OH]
2. HVEGTFTSDVSSYLEGQAAKEFIDWLVKGRG [Val^8-Asp^30-GLP-1(7-37)OH]
3. HVEGTFTSDVSSYLEGQAAEEFIAWLVKGRG [Val^8-Glu^26-GLP-1(7-37)OH]
4. HVEGAFTSDVSSYLEGQAAKEFIAWLVKGRG [Val^8-Ala^11-GLP-1(7-37)OH]
5. HVEGTFTSDVSSYLEAQAAKEFIAWLVKGRG [Val^8-Ala^22-GLP-1(7-37)OH]
6. HVEGTFTSDVSSYLEKEAAKEFIAWLVKGRG [Val^8-Lys^22-Glu^23-GLP-1(7-37)OH]

[1.6, 0.15, 1.5, 0.021, 0.56, 0.35]
